Cited source for all entries: paper PMC7059089

- Target or system: AChE (acetylcholinesterase) (Electrophorus electricus)
- Sequence (O42275 24-633): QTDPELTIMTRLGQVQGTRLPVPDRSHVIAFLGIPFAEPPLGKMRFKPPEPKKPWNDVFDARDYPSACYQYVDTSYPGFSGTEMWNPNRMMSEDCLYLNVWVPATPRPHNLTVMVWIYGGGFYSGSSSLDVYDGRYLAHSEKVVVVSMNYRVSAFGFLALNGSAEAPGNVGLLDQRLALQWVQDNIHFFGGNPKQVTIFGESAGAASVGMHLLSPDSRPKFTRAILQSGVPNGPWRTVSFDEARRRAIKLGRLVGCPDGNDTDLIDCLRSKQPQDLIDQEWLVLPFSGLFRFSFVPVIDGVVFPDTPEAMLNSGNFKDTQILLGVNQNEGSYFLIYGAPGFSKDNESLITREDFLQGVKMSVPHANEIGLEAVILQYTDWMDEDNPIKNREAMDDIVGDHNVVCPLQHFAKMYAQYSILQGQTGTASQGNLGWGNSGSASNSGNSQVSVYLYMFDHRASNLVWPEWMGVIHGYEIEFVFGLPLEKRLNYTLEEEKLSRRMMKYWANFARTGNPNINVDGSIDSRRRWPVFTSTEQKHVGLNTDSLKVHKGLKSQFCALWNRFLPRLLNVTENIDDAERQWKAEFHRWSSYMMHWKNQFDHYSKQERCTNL
API: label(entry) gives Satisfied if the entry's IC50 is strictly smaller than 20 µM; on equality or larger values it gives Not satisfied.

{"columns": ["Molecule", "Classification"],
 "data": [
  ["C[C@@H]1O[C@@H](O[C@H]2[C@H](Oc3cc(O)c4c(c3)O[C@H](c3ccc(O)c(O)c3)CC4=O)O[C@H](CO)[C@@H](O)[C@@H]2O)[C@H](O)[C@H](O)[C@H]1O", "Not satisfied"]
]}

Lookup: # TODO verify IC50 < 20 µM strictly for this molecule: O=C1C[C@@H](c2ccc(O)cc2)Oc2cc(O)cc(O)c21
Found: Satisfied

Lookup: Dear reviewer, please state whether O=C1C[C@@H](c2ccc(O)c(O)c2)Oc2cc(O)cc(O)c21 has IC50 strictly beneath 20 µM.
Found: Satisfied

Lookup: Is 20 µM strictly greater than the molecule's reported IC50? molecule: O=c1cc(-c2ccc(O)c(O)c2)oc2cc(O)cc(O)c12
Found: Satisfied

Lookup: Problem: For the molecule O=c1c(O[C@@H]2O[C@H](CO)[C@@H](O)[C@H](O)[C@H]2O)c(-c2ccc(O)cc2)oc2cc(O)cc(O)c12 , is IC50 under 20 µM?
Found: Satisfied

Lookup: # strict comparison: is reported IC50 < 20 µM? input = O=c1cc(-c2ccc(O)c(O)c2)oc2cc(O[C@@H]3O[C@H](CO)[C@H](O)[C@H](O)[C@H]3O)cc(O)c12 [Luteolin-7-O-β-D-glucoside, luteolin-7-O-β-D-glucoside]
Found: Satisfied

Lookup: Lab log: compare recorded IC50 with 20 µM; is it strictly lower for C[C@@H]1O[C@@H](O[C@H]2[C@H](Oc3cc(O)c4c(c3)O[C@H](c3ccc(O)cc3)CC4=O)O[C@H](CO)[C@@H](O)[C@@H]2O)[C@H](O)[C@H](O)[C@H]1O ?
Found: Not satisfied
